Consider the following binders; for each one, report its 100 nM huCB1-SMALP binding (normalized to 10D10).
# Target: T1, GFP-fused huCB1-SMALP (human CB1 in styrene maleic acid lipoparticles) (human, UniProt P21554 1-472)
# T1 construct: Prepared as in Luna V. et al. 2018; also called huCB1-GFP-SMALP; wtCB1-SMALP; not shown: GFP fusion
# T1 sequence (P21554 whole entry, the tested form may be a part): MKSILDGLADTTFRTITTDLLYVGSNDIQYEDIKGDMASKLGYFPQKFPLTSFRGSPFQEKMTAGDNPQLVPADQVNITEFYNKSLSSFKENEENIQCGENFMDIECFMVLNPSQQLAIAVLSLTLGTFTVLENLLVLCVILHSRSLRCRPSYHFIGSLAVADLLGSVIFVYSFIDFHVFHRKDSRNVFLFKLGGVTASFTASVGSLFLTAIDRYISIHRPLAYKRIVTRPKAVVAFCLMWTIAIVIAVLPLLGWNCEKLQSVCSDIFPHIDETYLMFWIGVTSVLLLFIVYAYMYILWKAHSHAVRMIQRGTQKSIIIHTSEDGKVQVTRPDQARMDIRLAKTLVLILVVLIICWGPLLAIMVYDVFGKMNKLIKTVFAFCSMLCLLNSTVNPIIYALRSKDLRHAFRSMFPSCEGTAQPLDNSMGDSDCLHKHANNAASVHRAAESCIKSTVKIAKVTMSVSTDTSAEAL
# Assay: flow cytometry, yeast-displayed IgG, GFP MFI
Give bare numbers, in fold.

Binder	Numeric Value
LIBC523603-1 (antibody, V domains shown) VH: QVQLQESGPGLVKPSQTLSLTCTVSGGSIRRGGDYWAWIRQHPGKGLEWIGHVYQSGQTAYNPNFENRATISVNTYKNQFSLKLSSVTAADTAVYYCARDYDAVSGYSYYYYGMDVWGQGTTVTVSS VL: DIVMTQSPLSLPVTPGEPASISCRSSQSLLSSYGNNYVDWYLQKPGQSPQLLIYQGSNRASGVPDRFSGSGSGTDFTLKISRVEAEDVGVYYCRQAVGLPRTFGQGTKVEIKR	4.05

query: Need 100 nM huCB1-SMALP binding (normalized to 10D10) of LIBC523670-1 (antibody, V domains shown, also called LIBC523670-1 + VK2 germline fix) VH: QVQLQESGPGLVKPSQTLSLTCTVSGGSIRRGGDYWAWIRQHPGKGLEWIGHVYQTGQTAYNPNLESRATISVNTYKNQFSLKLSSVTAADTAVYYCARNYDVLSGYSYYYYGMDVWGQGTTVTVSS VL: DIVMTQSPLSLPVTPGEPASISCRSSQSLLTSYGANYLDWYLQKPGQSPQLLIYQGSNRASGVPDRFSGSGSGTDFTLKISRVEAEDVGVYYCMQALQIPRTFGQGTKVEIKR , thanks.
result: 5.42

Values compiled from patent US20250277029A1.
